Origin of the recorded values: PubChem BioAssay (NCATS)

- test_protocol: qHTS of pediatric cancer cell lines to identify multiple opportunities for drug repurposing: Primary screen for SK-N-MC cells (AID 1347093); also: potency is read from the fitted curve at half-maximal effect
- condition_parameters: SK-N-MC viability, CellTiter-Glo luminescence, 48 h; series mostly up to 46 µM
Results filed as inconclusive are left out. Activity calls are given as the source filed them. Calls follow the shape of the dose curve; as a rule, active = well fitted cell-killing curve with a large enough effect; inconclusive = small, poorly fitted or top-dose-only effect; inactive = no such curve, though single readings can be large or run the other way.
property: Potency

[
  {
    "molecular_string": "COc1ccc(S(=O)(=O)Nc2cc(-c3c(O)ccc4ccccc34)c(O)c3ccccc23)cc1",
    "Potency": "3.32 µM (active)"
  },
  {
    "molecular_string": "CCc1cc(C(C)=NOCc2ccc(C3CCCCC3)c(C(F)(F)F)c2)ccc1CN1CC(C(=O)O)C1",
    "Potency": "0.0372 µM (active)"
  },
  {
    "molecular_string": "C[C@H](NC(=O)Cc1cc(F)cc(F)c1)C(=O)N[C@H](C(=O)OC(C)(C)C)c1ccccc1",
    "Potency": "14.8 µM (active)"
  },
  {
    "molecular_string": "CCOC(=O)N1CCN([N+]([O-])=NOc2ccc([N+](=O)[O-])cc2[N+](=O)[O-])CC1",
    "Potency": "8.33 µM (active)"
  }
]

The molecule listed as Cc1ccc2nc(NCCN)c3ncc(C)n3c2c1 shows Potency equal to 1.66 µM (active)
